The reported measurements were obtained from PubChem BioAssay.

Give composite z-score for every item shown.
Assay: binders from COS7 lysate, DM2A8 probe, primary screen, torsin A project, cell lysate, small-molecule microarray, fluorescence 635/667 (AID 1065)
Details: higher = more signal, COS7 lysate expressing mutant human TOR1A
Answers are plain numbers.

Worked cases, composite z-score given:
Compound	Quantity measured	Value
C=CC1c2cc(O)c(OC)cc2CCN1Cc1cc2c(cc1Br)OCO2 (configuration not stated)	composite z-score	1.07
COC(=O)[C@@]1(Cc2ccc(F)cc2)[C@H]2c3cc(C(=O)N(C)C)n(CCc4ccc(O)c(OC)c4)c3C[C@H]2CN1C(=O)c1ccccc1	composite z-score	0.245
O=C1O[C@H](c2ccccc2)[C@H](c2ccccc2)N2[C@H]1[C@@H](C(=O)N1CCN(c3ncccn3)CC1)[C@]1(C(=O)Nc3ccc(C#CC4(O)CCCCCC4)cc31)[C@H]2c1ccc(OCCO)cc1	composite z-score	0.968
CN1C(=O)C2C=CC(C(O)COCc3ccccc3)N(N(c3ccccc3)c3ccccc3)C2C1=O (configuration not stated)	composite z-score	-0.177

Dear reader, for each entry below, please note its composite z-score.
1. C=CCNC(=O)[C@H]1[C@@H]2C(=O)O[C@@H](c3ccccc3)[C@@H](c3ccccc3)N2[C@@H](c2ccc(O)cc2)[C@]12C(=O)N(C(=O)OCCOC)c1ccccc12
2. COC(=O)[C@@]1(Cc2ccc(OC)cc2)[C@H]2c3cc(C(=O)N4CCCC4)n(Cc4cccc5ccccc45)c3C[C@H]2CN1C(=O)c1ccccc1
3. [N-]=[N+]=NCc1ccccc1C[C@]1(C(N)=O)N=C(c2ccc(OCCCO)cc2)O[C@H]1c1ccccc1

Data returned:
1. 0.267
2. -0.214
3. 0.514

---

Test system: Fibrinogen (Alexa647-labelled)
Experiment: fibrinogen binders on compound microarrays, profiling panel, artefact control for SMM control-protein annotation, biochemical, small-molecule microarray, 635/667 nm fluorescence (AID 1131);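 also: z-score merges 667 nm fluorescence with per-spot signal-to-noise over triplicate slides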
Conditions: fibrinogen-A647 binding fluorescence, higher = more signal
I'd be grateful if you could share measured composite z-score for these entries.
Give bare numbers.

Here's what some known entries look like.
Compound	Assayed target	composite z-score
COCCOC(=O)N1C(=O)[C@@]2(c3cc(C#CC4=CCCCC4)ccc31)[C@H](C(N)=O)[C@H]1C(=O)O[C@H](c3ccccc3)[C@H](c3ccccc3)N1[C@@H]2c1ccccc1OCCO	Fibrinogen (Alexa647-labelled)	0.939
CC(C)(C)OC(=O)CC[C@]1(C(=O)NCc2ccccc2)N=C(c2ccc(OCCCO)cc2)O[C@H]1c1ccccc1CN=[N+]=[N-]	Fibrinogen (Alexa647-labelled)	0.985
COc1ccc(-c2cc3c(c(CCc4ccccc4)n2)[Si](C(C)C)(C(C)C)OC3)cn1	Fibrinogen (Alexa647-labelled)	-0.284
[N-]=[N+]=Nc1ccccc1C[C@]1(C(N)=O)N=C(c2ccc(OCCCO)cc2)O[C@H]1c1ccccc1N=[N+]=[N-]	Fibrinogen (Alexa647-labelled)	0.941
CO[C@H]1O[C@H](CO)[C@@H](OC(=O)Nc2ccccc2-c2ccccc2)[C@H](OC(=O)Nc2ccc3c(c2)OCO3)[C@H]1OC(=O)Nc1ccc2c(c1)OCO2	Fibrinogen (Alexa647-labelled)	0.941

For every item below, please supply its composite z-score.
1. CCCNC(=O)[C@@H]1c2ccccc2C(=O)N(C(C)C)[C@H]1c1ccc(CO)cc1
2. O=C1O[C@@H](c2ccccc2)[C@@H](c2ccccc2)N2[C@@H](c3ccc(O)cc3)[C@]3(C(=O)Nc4ccc(C#CC5(O)CCCCCC5)cc43)[C@@H](C(=O)NC[C@H](O)c3ccccc3)[C@H]12
3. CCC(CC)C(O)C1C=CC2C(=O)N(c3ccccc3)C(=O)C2N1Nc1ccc(C(C)C)cc1 (stereo unspecified)
4. Cc1cc(C)c(C(O)C2C=CC3C(=O)NC(=O)C3N2Nc2ccc(Cl)cc2Cl)c(C)c1 (stereo unspecified)

Data returned:
1. -0.29
2. 0.151
3. 0.978
4. 0.966
